particulars: in water, 303.15 K
outcome-measure: solubility (mole fraction)
Reply: number alone, nothing else.

compound	outcome-measure	numeric-result
CC[C@H](C)[C@H](N)C(=O)O (racemic)	solubility (mole fraction)	0.0032

We next turn to a different compound, shown below.
Prompt: May I ask what solubility (mole fraction) has been recorded for CC(C)CC(N)C(=O)O (racemic) ?
Completion: 0.00144

* * *

particulars: in DMF, 308.15 K
Below is a list of entries, each paired with its recorded solubility (mole fraction) value.
Reply: number alone, nothing else.

molecule	solubility (mole fraction)
CC(C)CC(N)C(=O)O (racemic)	0.0002

We next turn to a different molecule, shown below.
Prompt: May I ask what solubility (mole fraction) has been recorded for CC[C@H](C)[C@H](N)C(=O)O (racemic) ?
Completion: 0.00029
